Values from patent US20190309059A1

- measurementTarget: his-labeled human IL-13 (immunogen A) (human) (UniProt P35225)
- methodDescription: FACS blocking, biotin-IL-13 on IL-13Ra1/IL-4Ra HEK293 cells; antibody at 33.33 nM
Attribute: mean fluorescence intensity

binder	mean fluorescence intensity
70F10A10 (lead antibody, mouse hybridoma) (antibody, V domains shown) VH: QIQLQQSGAELARPGASVKLSCKASGYTFTSYGISWVKQRDGQGLEWIGEIYPRSGNTDYNEKFKGKATLTADKSSSTAYMELRSLTSEDSAVYFCSSFTTLVPTDYFDYWGQGTTLTVSS VL: DIMMSQSPSSLAVSVGEKVSMTCKSSQSLLYSSNQKNYLAWYQQKPGQSPKMLIYWASTRETGVPDRFTGSGSGTDFTLTISSVMAEDLAVYYCHQYFTYPRTFGDGTKLEVK	20.3
c29D9H8 (mouse-human chimeric IL-13 antibody) (antibody, V domains shown) VH: QVQLQQSGAELVRPGASVTLSCKASGYTFTDYEMHWVKQTPVHGLEWIGGIDPETGGTASNQKFKGKAILTADKSSSTAYMELRSLTSEDSAVYYCTSGDYFGGGPFAYWGQGTLVTVSA VL: DIKMTQSPSSMYASLGERVTITCKASQDINSYLSWFQQKPGKSPKTLIYRANRLVDGVPSRFSGSGSGQDYSLTISSLDYEDMGIYYCLQYDEFPYTFGGGTKLEIK	20.2
c35E2C3 (mouse-human chimeric IL-13 antibody) (antibody, V domains shown) VH: EVQLQESGPGLAKPSQTLSLTCSVTGYSITSDYWNWIRKFPGNKLEYMGYISYNGNTYYNPSLKSQISITRDTSKNQLYLQLKSATTEDTATYYCARLAKWTWYFDIWGTGTTVTVSS VL: DIQMNQSPSSLSASLGDTITITCHASQNINVWLSWYQQKPGSLPKLLIYKASDLHTGVPSRFSGSGSGTGFTLTISSLQPEDIATYYCQQGQSYPYTFGGGTKLEIK	19.6
